Assay: Stability in human microsomes assessed as unbound intrinsic clearance
Assay type: ADME, Microsome
Record form. Attribute: log10(CL free). Fill in for each entry.
Log10 applied to CL free; unit prior to transform: mL/min/kg.

Quick one: log10(CL free) of CNC(=O)[C@@H]1CCCN1S(=O)(=O)c1ccc(Cl)c(COc2cccc3c(-c4ccccn4)cc(C)nc23)c1Cl ?
2.26

Quick one: log10(CL free) of CNC(=O)[C@@H]1CCCN1S(=O)(=O)c1cccc(COc2cccc3c(C(F)(F)F)cc(C)nc23)c1 ?
1.70

Quick one: log10(CL free) of Cc1cc(C(F)(F)F)c2cccc(OCc3c(Cl)ccc(S(=O)(=O)N4CCC[C@H]4CO)c3Cl)c2n1 ?
2.40

Quick one: log10(CL free) of Cc1cc(C(F)(F)F)c2cccc(OCc3c(Cl)ccc(S(=O)(=O)N4CCC[C@H]4C(=O)O)c3Cl)c2n1 ?
0.92

Quick one: log10(CL free) of CNC(=O)[C@@H]1CCCN1S(=O)(=O)c1ccc(Cl)c(COc2cccc3c(OCc4ccccc4)cc(C(C)C)nc23)c1Cl ?
2.82

Quick one: log10(CL free) of CCc1cc(C(F)(F)F)c2cccc(OCc3c(Cl)ccc(S(=O)(=O)N4CCC[C@H]4C(=O)NC)c3Cl)c2n1 ?
2.48

Quick one: log10(CL free) of Cc1cc(C(F)(F)F)c2cccc(OCc3c(Cl)ccc(S(=O)(=O)N4CCCC4)c3Cl)c2n1 ?
2.37

Quick one: log10(CL free) of CNC(=O)[C@@H]1CCCN1S(=O)(=O)c1ccc(Cl)c(COc2cccc3c(OCc4ccccc4)cc(C)nc23)c1Cl ?
2.67

Quick one: log10(CL free) of CNC(=O)[C@@H]1CCCN1S(=O)(=O)c1ccc(Cl)c(COc2cccc3c(-c4cncn4C)cc(C)nc23)c1Cl ?
1.52

Quick one: log10(CL free) of Cc1cc(C(F)(F)F)c2cccc(OCc3c(Cl)ccc(S(=O)(=O)N4C[C@@H](C)O[C@@H](C)C4)c3Cl)c2n1 ?
2.50

###

Assay: Oral bioavailability in mouse at 10 mg/kg
Format: ADME, organism-based
Conditions: in vivo
Recorded metric: bioavailability (%)
Your answer is read as %, so omit the unit and give the number.

Quick one: bioavailability of CNC(=O)[C@@H]1CCCN1S(=O)(=O)c1ccc(Cl)c(COc2cccc3c(-c4cncn4C)cc(C(C)C)nc23)c1Cl ?
64

###

Experiment: Plasma clearance in mouse at 10 mg/kg, po or 1 mg/kg, iv
Assay type: ADME, organism-based
Recorded metric: clearance (mL/min/kg)
Your answer is read as mL/min/kg, so omit the unit and give the number.

Quick one: clearance of CNC(=O)[C@@H]1CCCN1S(=O)(=O)c1ccc(Cl)c(COc2cccc3c(-c4cncn4C)cc(C(C)C)nc23)c1Cl ?
27.5

###

Assay: Half life in mouse at 100 mg/kg, po
Assay type: ADME, organism-based
Settings: in vivo
Recorded metric: half-life
The number alone won't do; follow it with the unit.

Quick one: half-life of CNC(=O)[C@@H]1CCCN1S(=O)(=O)c1ccc(Cl)c(COc2cccc3c(-c4cncn4C)cc(C(C)C)nc23)c1Cl ?
2.2 h

###

Record form. Attribute: CL free. Fill in for each entry.
Test: Stability in mouse microsomes assessed as unbound intrinsic clearance
Type: ADME, Microsome
Your answer is read as L/h/kg, so omit the unit and give the number.

Quick one: CL free of CNC(=O)[C@@H]1CCCN1S(=O)(=O)c1cccc(COc2cccc3c(C(F)(F)F)cc(C)nc23)c1 ?
46

Quick one: CL free of CNC(=O)[C@@H]1CCCN1S(=O)(=O)c1ccc(Cl)c(COc2cccc3c(OCc4ccccc4)cc(C)nc23)c1Cl ?
109

Quick one: CL free of CNC(=O)[C@@H]1CCCN1S(=O)(=O)c1ccc(Cl)c(COc2cccc3c(-c4cncn4C)cc(C(C)C)nc23)c1Cl ?
6

Quick one: CL free of CNC(=O)[C@@H]1CCCN1S(=O)(=O)c1ccc(Cl)c(COc2cccc3c(-c4ccccn4)cc(C)nc23)c1Cl ?
44
